# System: SN12C renal
# Protocol Details: NCI tumour cell line growth inhibition, 48 h
Quick reference: TGI of the listed items.

Solved entries:
O=C(Nc1ccc2c(c1)oc(=O)c1ccccc12)C(Cl)Cl; > 100 µM
Cn1c(COC(=O)NC2CCCCC2)c(COC(=O)NC2CCCCC2)c2ccc3cc(Cl)c(Cl)cc3c21; 23.9 µM

Next item in the queue.
So for CC(CCCOC(c1ccccc1)(c1ccccc1)c1ccccc1)OC(=O)Nc1cc([N+](=O)[O-])cc([N+](=O)[O-])c1 (stereo not drawn) , the logged TGI turned out to be > 100 µM

---

# Test system: MDA-MB-435
# Protocol Details: NCI tumour cell line growth inhibition, 48 h
Quick reference: TGI of the listed items.

O=[N+]([O-])c1ccc(CS(=O)Cc2ccccc2)cc1 (stereo not given); > 100 µM
CN1C(=O)C(O)CC1c1cccc(F)c1 (stereo not given); > 100 µM
N=c1oc2ccc(Cl)cc2cc1C(=O)Nc1ccccc1; > 100 µM
CCSc1nc(COC(=O)NC)c(COC(=O)NC)n1C; > 100 µM

Next item in the queue.
So for CC(C)OC(=O)c1ccc2[nH]c(O)c(C(=Nc3ccc(N(C)C(=O)CN4CCN(C)CC4)cc3)c3ccccc3)c2c1 , the logged TGI turned out to be 2.3 µM

---

# System: SF-539 CNS
# Protocol Details: NCI tumour cell line growth inhibition, 48 h; in the data active = GI50 below about 0.43 µM; inactive = the rest
Pick from true (active), false (inactive) when you respond.

Previously resolved entries follow.
CC(C)OC(=O)c1ccc2[nH]c(O)c(C(=Nc3ccc(N(C)C(=O)CN4CCN(C)CC4)cc3)c3ccccc3)c2c1; true
O=C(NN1C(=O)CSC1c1ccc(Cl)cc1)c1[nH]c2ccc(F)cc2c1-c1ccccc1 (centres undefined); false
C[C@H](CS(C)(=O)=O)Nc1ncc2cc(Oc3ccc(F)cc3F)c(=O)n(C)c2n1; false

API: the following record is the query input.
query: // param item: CCc1c[nH]c2ncnc(N3CC[C@@](N)(CNC(=O)c4ccc(F)cc4F)C3)c12 ; yields the recorded call
result: false

---

# Tested on: HOP-62 NSCLC
# Protocol Details: NCI tumour cell line growth inhibition, 48 h
Property Label: TGI

Solved entries:
CC1CC/C(=C\c2ccc(N(C)C)cc2)C(=O)/C1=C/c1ccc(N(C)C)cc1 (stereo not drawn); > 100 µM
O=C(CC(C(=O)c1ccsc1)c1ccccc1)c1cccs1 (stereo not drawn); > 100 µM

Next item in the queue.
So for C/C(=N\NC(N)=O)C(CN(C)C)C(c1ccccc1)c1c(O)c2ccccc2oc1=O (stereo not drawn) , the logged TGI turned out to be > 100 µM

---

Quick reference: TGI of the listed items.
# Test system: NCI-H23 lung
# Protocol Details: NCI tumour cell line growth inhibition, 48 h

Solved entries:
Cn1cc(-c2ccc3c(c2)CCN3C(=O)Cc2cccc(C(F)(F)F)c2)c2c(N)ncnc21; 24.2 µM
CCOC(=O)N1CCN(S(=O)(=O)c2oc(-c3ccc(Cl)cc3)nc2C#N)CC1; 15.1 µM
O=C(NCCNCCO)N/N=C/c1ccc([N+](=O)[O-])cc1; > 100 µM
CCCCCCCC(=O)N/N=C/c1ccc(Sc2nccn2C)c([N+](=O)[O-])c1; 42.9 µM
CCSc1nc(COC(=O)NC)c(COC(=O)NC)n1C; > 100 µM

Next item in the queue.
So for C[C@H](CS(C)(=O)=O)Nc1ncc2cc(Oc3ccc(F)cc3F)c(=O)n(C)c2n1 , the logged TGI turned out to be > 25 µM

---

# Tested on: UO-31 renal
# Protocol Details: NCI tumour cell line growth inhibition, 48 h; in the data active means GI50 below about 0.43 µM; inactive means the rest
Pick from active, inactive when you respond.

Previously resolved entries follow.
N#CC1C(N)=NNC12Nc1ccccc1N2 (stereo not drawn); inactive
Cc1ccc2c(c1)ncn2-c1ncnc2c1CC(C)c1ccccc1N2C (stereo not drawn); active

query: // param item: Oc1cc(Cl)ccc1Oc1ccc(Cl)cc1Cl ; yields the recorded call
result: inactive

---

# Test system: SF-539 CNS
# Protocol Details: NCI tumour cell line growth inhibition, 48 h
Property Label: TGI

Solved entries:
OC(c1ccccc1)(c1ccccc1)c1cccnc1; > 100 µM
c1ccc2c(c1)CCN2CCc1c[nH]c2ccccc12; > 10 µM
O=C1CC(CC(OCc2ccccc2)C(COCc2ccccc2)OCc2ccccc2)CC(=O)N1 (configuration not stated); > 100 µM
CC1=NN(C(=O)c2ccc(Cl)cc2)C(=O)/C1=C/c1cccc([N+](=O)[O-])c1; > 100 µM
COc1ccccc1-c1c(C)nn2c(NCc3ccccn3)cc(C)nc12; > 50 µM
CN(N)/N=N/c1nc[nH]c1C(N)=O; > 100 µM
N/N=C(\Cc1ccccc1)NN=C(N)N; > 100 µM
CCOC(=O)C(NC(=O)NC(C(=O)OCC)C(=O)OCC)C(=O)OCC; > 100 µM

So for O=C1N[C@@H]([C@H](CCCCCO)OC(=O)c2ccccc2)CO1 , the logged TGI turned out to be > 100 µM

So for O=C(O)CCC1CCc2cccc3occ1c23 (configuration not stated) , the logged TGI turned out to be > 100 µM

So for CC(C)CNC(=O)Cn1c2c(c3ccccc31)CCCC2 , the logged TGI turned out to be > 100 µM

So for N#Cc1c2c([nH]c(=O)c1C#N)CCCC2 , the logged TGI turned out to be > 100 µM

---

# System: MDA-MB-435
# Protocol Details: NCI tumour cell line growth inhibition, 48 h
Property Label: TGI

O=C1C(N=Nc2ccc(-c3nc4ccccc4o3)cc2)NC(=S)N1c1ccccc1 (stereo not drawn); > 100 µM

Summary: CCc1cc2c(cc1CCCC(=O)O)CC1(Cc3ccc(C(=O)O)cc3C1)C2 (stereo not drawn) , MDA-MB-435, TGI = > 100 µM

Summary: C=C(Br)CN(CC(=C)Br)C(C)=O , MDA-MB-435, TGI = > 100 µM

---

# Test system: SF-295 CNS
# Protocol Details: NCI tumour cell line growth inhibition, 48 h
Property Label: TGI

Solved entries:
C=CC12CN(C)C3C4COC(CC41)C1(C(=O)Nc4ccccc41)C32 (stereo unspecified); > 200 µM
CC(=O)NC(CCCN(Cc1ccccc1)C(=O)N(CCCl)N=O)C(=O)NCc1ccccc1 (stereo unspecified); > 100 µM
COc1cc2c(c(OC)c1OC)C(=O)[C@H]1OC(=O)N[C@@H]21; > 100 µM
CN(N)/N=N/c1nc[nH]c1C(N)=O; > 70.9 µM
CCOc1ccc(NC(=O)CC2SC(N)=NC2=O)cc1 (stereo unspecified); > 100 µM

Next item in the queue.
Summary: CC(=O)O[C@]12CCC[C@H]1C1(O)C(O)CCC[C@H]12 (stereo partly specified) , SF-295 CNS, TGI = > 100 µM

---

Quick reference: TGI of the listed items.
# Tested on: UO-31 renal
# Protocol Details: NCI tumour cell line growth inhibition, 48 h

Solved entries:
COc1ccccc1-c1c(C)nn2c(NCc3ccccn3)cc(C)nc12; > 50 µM
CC(C)[C@@H](COC(C)(C)C)N=CN1CCc2c([nH]c3ccccc23)C1; > 100 µM
C=CC12CN(C)C3C4COC(CC41)C1(C(=O)Nc4ccccc41)C32 (centres undefined); > 200 µM
CC(=O)Nc1ccc(N2C(=O)/C(=C\c3cccc(Oc4ccccc4)c3)SC2c2ccccc2)cc1 (centres undefined); > 100 µM
OC(c1ccccc1)(c1ccccc1)c1cccnc1; > 100 µM
CN(N)/N=N/c1nc[nH]c1C(N)=O; > 62.2 µM

So for O=C(NN1C(=O)CSC1c1ccc(Cl)cc1)c1[nH]c2ccc(F)cc2c1-c1ccccc1 (centres undefined) , the logged TGI turned out to be 13.7 µM

So for O=C1CC2C(=O)N(Cc3ccccc3)C1C(S(=O)(=O)c1ccccc1)C2S(=O)(=O)c1ccccc1 (centres undefined) , the logged TGI turned out to be 22.6 µM

So for [O-]c1on[n+]2c1c(Nc1ccc(Cl)cc1)nc1ccccc12 , the logged TGI turned out to be > 100 µM

So for CN(C)c1ccc(C(N)=O)cn1 , the logged TGI turned out to be > 100 µM

So for CC1=CCS(=O)(=O)C1C(O)C1=C(C)CCCC1(C)C (centres undefined) , the logged TGI turned out to be > 100 µM

So for CCSc1nc(COC(=O)NC)c(COC(=O)NC)n1C , the logged TGI turned out to be > 100 µM

So for CCOC(=O)CN1CCSC1=NC#N , the logged TGI turned out to be > 100 µM

So for O=C1CCC2(c3ccccc3)Nc3cc(Cl)ccc3N12 (centres undefined) , the logged TGI turned out to be 63.3 µM

---

Quick reference: TGI of the listed items.
# System: SK-OV-3 ovarian
# Protocol Details: NCI tumour cell line growth inhibition, 48 h

Solved entries:
CC(=O)OC1C2(CC3N4C(=O)C5(CO)SSC4(CC31O)C(=O)N5C)OC(C)C(C)(C)C2=O (configuration not stated); 0.454 µM
Nc1nnc(-c2ccco2)c(-c2ccco2)n1; > 100 µM
COc1cc(Oc2c(O)c(C)c(OC)c(C(C)=O)c2O)c(C(C)=O)c(O)c1C; > 100 µM
Cc1nnc2sc(-c3ccc(-c4ccccc4Cl)o3)nn12; > 100 µM
O=C(Nc1ccc([N+](=O)[O-])cc1)C(=O)C(C(=O)c1ccccc1F)C1OC(=O)c2ccccc21 (configuration not stated); > 100 µM
CC(C)OC(=O)c1ccc2[nH]c(O)c(C(=Nc3ccc(N(C)C(=O)CN4CCN(C)CC4)cc3)c3ccccc3)c2c1; 1.34 µM

Next item in the queue.
Summary: COc1cc2cc(Oc3ccc(NC(=O)c4ccc(Cl)c(C(F)(F)F)c4)cc3)c(C)nc2cc1OC , SK-OV-3 ovarian, TGI = > 100 µM
